What pIC50 was measured for each of the following?
test: Cytotoxicity against human MIAPaCa2 cells after 72 hrs by MTT assay; type: functional, cell-based; settings: MIA PaCa-2, 72 h
Answers are plain numbers, as −log10 of the molar value.

O=C(CCCc1ccc(N(CCCl)CCCl)cc1)NCCC[P+](c1ccccc1)(c1ccccc1)c1ccccc1.O=C([O-])C(F)(F)F 5.80

Query: Tell me pIC50 reported for "O=C(O)CCCc1ccc(N(CCCl)CCCl)cc1"
Reply: 4.11

====

assay: Cytotoxicity against human SKBR3 cells after 72 hrs by MTT assay; type: functional, cell-based; details: SK-BR-3, 72 h
Recorded Metric: pIC50
Numbers only, as −log10 of the molar value.

Compound	pIC50
O=C(O)CCCc1ccc(N(CCCl)CCCl)cc1 [CHLORAMBUCIL]	3.61

Now turn to the next compound.
Query: Tell me pIC50 reported for "O=C(CCCc1ccc(N(CCCl)CCCl)cc1)NCCC[P+](c1ccccc1)(c1ccccc1)c1ccccc1.O=C([O-])C(F)(F)F"
Reply: 5.24
